target: Hepatocyte growth factor receptor (Homo sapiens, UniProt P08581, D1228N); assay: Inhibition of N-terminal GST-tagged recombinant human c-MET D1228N mutant (956 to end residues) extracted from baculovirus infected Sf9 cells using 5-FAM-KKKKEEIYFFF-CONH2 as substrate preincubated for 30 mins followed by ATP addition measured after 60 mins by fluorescence-based microfluidic mobility shift assay
Sequence (P08581 25-1390 D1228N limits assumed): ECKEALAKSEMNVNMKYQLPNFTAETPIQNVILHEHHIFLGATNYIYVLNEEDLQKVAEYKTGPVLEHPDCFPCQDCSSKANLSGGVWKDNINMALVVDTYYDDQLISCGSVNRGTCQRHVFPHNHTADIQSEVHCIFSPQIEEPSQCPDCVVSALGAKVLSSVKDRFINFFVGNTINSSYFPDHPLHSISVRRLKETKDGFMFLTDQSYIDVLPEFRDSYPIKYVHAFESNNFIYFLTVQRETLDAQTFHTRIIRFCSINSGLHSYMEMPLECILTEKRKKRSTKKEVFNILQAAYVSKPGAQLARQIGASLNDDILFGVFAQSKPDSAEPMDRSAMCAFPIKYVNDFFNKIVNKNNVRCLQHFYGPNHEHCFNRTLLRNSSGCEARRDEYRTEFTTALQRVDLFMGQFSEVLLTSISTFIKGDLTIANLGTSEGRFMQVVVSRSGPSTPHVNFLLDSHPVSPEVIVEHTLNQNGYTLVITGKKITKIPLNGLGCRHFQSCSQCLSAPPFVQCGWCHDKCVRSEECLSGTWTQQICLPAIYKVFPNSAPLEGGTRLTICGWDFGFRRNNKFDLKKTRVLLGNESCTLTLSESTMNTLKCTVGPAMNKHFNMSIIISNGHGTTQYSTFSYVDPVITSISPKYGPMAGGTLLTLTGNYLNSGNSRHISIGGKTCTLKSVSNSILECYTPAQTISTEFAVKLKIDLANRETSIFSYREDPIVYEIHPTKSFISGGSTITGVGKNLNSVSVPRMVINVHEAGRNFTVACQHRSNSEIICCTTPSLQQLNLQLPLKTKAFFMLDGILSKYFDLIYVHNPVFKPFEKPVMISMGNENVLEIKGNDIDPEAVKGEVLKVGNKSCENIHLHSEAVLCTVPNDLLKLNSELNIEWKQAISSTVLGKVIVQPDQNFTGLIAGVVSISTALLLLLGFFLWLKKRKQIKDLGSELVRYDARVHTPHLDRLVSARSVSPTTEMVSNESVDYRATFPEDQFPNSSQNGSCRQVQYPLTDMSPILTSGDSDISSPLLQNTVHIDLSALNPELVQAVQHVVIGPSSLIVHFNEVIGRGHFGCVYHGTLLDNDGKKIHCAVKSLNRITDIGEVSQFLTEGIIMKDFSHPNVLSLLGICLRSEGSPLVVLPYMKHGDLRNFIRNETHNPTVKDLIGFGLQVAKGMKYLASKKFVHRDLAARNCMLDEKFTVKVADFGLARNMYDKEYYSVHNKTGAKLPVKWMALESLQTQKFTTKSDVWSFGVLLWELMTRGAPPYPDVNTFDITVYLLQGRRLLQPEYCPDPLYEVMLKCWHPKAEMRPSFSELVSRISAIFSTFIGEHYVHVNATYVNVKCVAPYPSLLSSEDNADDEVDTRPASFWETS
pIC50: −log10 of the molar value.
Recorded pIC50 values for a group of compounds are listed next.
Observation Type: pIC50

Smiles Representation: COc1cc2nccc(Oc3ccc(NC(=O)c4ccccc4OC)cc3F)c2cc1OC
Endpoint Value: 8.66

Smiles Representation: COc1cc2nccc(Oc3c(F)cc(NC(=O)c4cnccc4OC)cc3F)c2cc1O[C@@H](C)CO
Endpoint Value: 9.70

----------
experiment: Oral bioavailability in male Sprague-Dawley rat at 30 mg/kg; type: ADME, organism-based; details: in vivo

Smiles Representation: COc1cc2nccc(Oc3c(F)cc(NC(=O)c4cnccc4OC)cc3F)c2cc1OCCO
bioavailability [%]: 34

----------
assay: Clearance in male Beagle dog at 1 mg/kg, iv; format: ADME, organism-based, Canis lupus familiaris; conditions: in vivo

Smiles Representation: COc1cc2nccc(Oc3c(F)cc(NC(=O)c4cnccc4OC)cc3F)c2cc1O[C@@H](C)CO
Readout Unit: mL/min/kg
clearance: 3.5

----------
system: BaF3; experiment: cells; conditions: Mus musculus, BaF3, 72 h
pEC50: −log10 of the molar value.
Recorded pEC50 values for a group of molecules are listed next.
Observation Type: pEC50

Smiles Representation: CN1CCC(COc2cnc(-c3cccc(Cn4nc(-c5cccc(C#N)c5)ccc4=O)c3)nc2)CC1
Endpoint Value: 6.91
--
Smiles Representation: Cc1ccc(C(=O)Nc2ccc(Oc3cc4cnn(C)c4cc3-c3cn[nH]c3)c(F)c2)c(=O)n1-c1ccc(F)cc1
Endpoint Value: 6.69
--
Smiles Representation: COc1cc2nccc(Oc3c(F)cc(NC(=O)c4cnccc4OC)cc3F)c2cc1O[C@@H](C)CO
Endpoint Value: 7.29
--
Smiles Representation: C[C@@H](c1ccc2nccn2c1)n1nnc2ncc(-c3cnn(C)c3)nc21
Endpoint Value: 7.14

----------
Recorded bioavailability values for a group of compounds are listed next.
assay: Oral bioavailability in mouse; type: ADME, organism-based; settings: in vivo
Observation Type: bioavailability

Smiles Representation: CNCCOc1cc2nccc(Oc3c(F)cc(NC(=O)c4cnccc4OC)cc3F)c2cc1OC
Observation Type: bioavailability
Endpoint Value: < 5%
--
Smiles Representation: COc1cc2c(Oc3c(F)cc(NC(=O)c4cnccc4OC4CC4)cc3F)ccnc2cc1OCCO
Observation Type: bioavailability
Endpoint Value: ~100%
--
Smiles Representation: COc1cc2c(Oc3c(F)cc(NC(=O)c4cnccc4OC)cc3F)ccnc2cc1OCCO
Observation Type: bioavailability
Endpoint Value: ~100%

----------
test: Oral bioavailability in female Balb/c mouse at 30 mg/kg; type: ADME, organism-based; conditions: in vivo

Smiles Representation: COc1cc2nccc(Oc3c(F)cc(NC(=O)c4cnccc4OC)cc3F)c2cc1OCCO
bioavailability: 13%

----------
assay: Half life in male Sprague-Dawley rat at 3 mg/kg, iv; format: ADME, organism-based; details: in vivo
Recorded half-life values for a group of compounds are listed next.

Smiles Representation: COc1cc2nccc(Oc3c(F)cc(NC(=O)c4cnccc4OC)cc3F)c2cc1O[C@@H](C)CO
half-life / h: 4.9
//
Smiles Representation: COc1cc2nccc(Oc3c(F)cc(NC(=O)c4cnccc4OC)cc3F)c2cc1OCCO
half-life / h: 3

----------
test: Clearance in male Beagle dog at 2 mg/kg, iv; format: ADME, organism-based, Canis lupus familiaris; details: in vivo
Observation Type: clearance (mL/min/kg)

Smiles Representation: COc1cc2nccc(Oc3c(F)cc(NC(=O)c4cnccc4OC)cc3F)c2cc1OCCO
Readout Unit: mL/min/kg
Endpoint Value: 6.7

----------
test: Half life in male Beagle dog at 1 mg/kg, iv; type: ADME, organism-based, Canis lupus familiaris; details: in vivo
Observation Type: half-life

Smiles Representation: COc1cc2nccc(Oc3c(F)cc(NC(=O)c4cnccc4OC)cc3F)c2cc1O[C@@H](C)CO
Observation Type: half-life
Endpoint Value: 6.3 h

----------
experiment: Volume of distribution in male Beagle dog at 2 mg/kg, iv; assay type: ADME, organism-based, Canis lupus familiaris; conditions: in vivo

Smiles Representation: COc1cc2nccc(Oc3c(F)cc(NC(=O)c4cnccc4OC)cc3F)c2cc1OCCO
Vd, L/kg: 2.25

----------
tested on: BaF3; assay: cells; settings: Mus musculus, BaF3, 72 h
pEC50: −log10 of the molar value.
Recorded pEC50 values for a group of compounds are listed next.

Compound: CN1CCC(COc2cnc(-c3cccc(Cn4nc(-c5cccc(C#N)c5)ccc4=O)c3)nc2)CC1 [TEPOTINIB]
Censoring Sign: =
pEC50: 5.47
--
Compound: Cc1ccc(C(=O)Nc2ccc(Oc3cc4cnn(C)c4cc3-c3cn[nH]c3)c(F)c2)c(=O)n1-c1ccc(F)cc1 [MERESTINIB]
Censoring Sign: =
pEC50: 7.59
--
Compound: COc1cc2nccc(Oc3c(F)cc(NC(=O)c4cnccc4OC)cc3F)c2cc1O[C@@H](C)CO
Censoring Sign: =
pEC50: 8.04
--
Compound: C[C@@H](c1ccc2nccn2c1)n1nnc2ncc(-c3cnn(C)c3)nc21 [SAVOLITINIB]
Censoring Sign: <
pEC50: 5.00

----------
target: 3',5'-cyclic-AMP phosphodiesterase 4D (Homo sapiens) (UniProt Q08499); experiment: Inhibition of PDE4D2 (unknown origin) at 10 uM by CEREP analysis relative to control
Sequence (Q08499 whole entry): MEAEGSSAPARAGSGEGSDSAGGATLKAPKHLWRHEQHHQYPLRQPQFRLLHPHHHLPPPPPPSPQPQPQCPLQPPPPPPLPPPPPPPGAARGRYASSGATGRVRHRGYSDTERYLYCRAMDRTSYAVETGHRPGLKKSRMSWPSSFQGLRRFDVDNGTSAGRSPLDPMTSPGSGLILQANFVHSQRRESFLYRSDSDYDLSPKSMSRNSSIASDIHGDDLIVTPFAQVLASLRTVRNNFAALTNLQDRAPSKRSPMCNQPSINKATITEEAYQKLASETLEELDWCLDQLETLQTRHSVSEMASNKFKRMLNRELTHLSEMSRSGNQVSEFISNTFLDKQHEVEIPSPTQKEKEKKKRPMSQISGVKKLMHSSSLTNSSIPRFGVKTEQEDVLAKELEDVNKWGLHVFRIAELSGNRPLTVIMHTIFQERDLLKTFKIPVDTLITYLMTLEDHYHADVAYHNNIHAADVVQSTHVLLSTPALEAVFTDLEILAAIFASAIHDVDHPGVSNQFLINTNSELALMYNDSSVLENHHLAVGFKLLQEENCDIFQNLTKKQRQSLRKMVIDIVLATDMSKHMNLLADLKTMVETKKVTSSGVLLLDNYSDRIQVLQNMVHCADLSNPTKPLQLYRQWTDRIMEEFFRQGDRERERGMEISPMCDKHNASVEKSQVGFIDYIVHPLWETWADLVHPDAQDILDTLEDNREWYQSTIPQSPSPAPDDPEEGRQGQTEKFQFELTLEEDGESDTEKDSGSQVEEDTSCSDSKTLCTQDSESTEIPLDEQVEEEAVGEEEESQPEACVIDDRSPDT

Smiles Representation: COc1cc2nccc(Oc3c(F)cc(NC(=O)c4cnccc4OC)cc3F)c2cc1OCCO
inhibition, %: 31
--
Smiles Representation: COc1cc2nccc(Oc3c(F)cc(NC(=O)c4cnccc4OC)cc3F)c2cc1O[C@@H](C)CO
inhibition, %: 65
--
Smiles Representation: CNCCOc1cc2nccc(Oc3c(F)cc(NC(=O)c4cnccc4OC)cc3F)c2cc1OC
inhibition, %: 11
--
Smiles Representation: COc1cc2c(Oc3c(F)cc(NC(=O)c4cnccc4OC4CC4)cc3F)ccnc2cc1OCCO
inhibition, %: 96
--
Smiles Representation: COc1cc2c(Oc3c(F)cc(NC(=O)c4cnccc4OC)cc3F)ccnc2cc1OCCO
inhibition, %: 90

----------
test: Half life in female Balb/c mouse at 1 mg/kg, iv; format: ADME, organism-based; conditions: in vivo
Observation Type: half-life

Smiles Representation: COc1cc2nccc(Oc3c(F)cc(NC(=O)c4cnccc4OC)cc3F)c2cc1O[C@@H](C)CO
Endpoint Value: 1.8 h

----------
assay: cells; conditions: Mus musculus, BaF3/TRP-Met, 72 h
Recorded log10 EC50 values for a group of compounds are listed next.
Observation Type: log10 EC50 (log10 of the value in nM)

Smiles Representation: COc1cc2nccc(Oc3c(F)cc(NC(=O)c4cnccc4OC)cc3F)c2cc1O[C@@H](C)CO
Endpoint Value: 1.04
//
Smiles Representation: COc1cc2nccc(Oc3c(F)cc(NC(=O)c4cnccc4OC4CC4)cc3F)c2cc1OC
Endpoint Value: 1.63
//
Smiles Representation: COc1cc2nccc(Oc3ccc(NC(=O)c4cnccc4OC)cc3F)c2cc1OC
Endpoint Value: 2.58
//
Smiles Representation: Cc1ccc(C(=O)Nc2ccc(Oc3cc4cnn(C)c4cc3-c3cn[nH]c3)c(F)c2)c(=O)n1-c1ccc(F)cc1
Endpoint Value: 1.40
//
Smiles Representation: COc1cc2nccc(Oc3ccc(NC(=O)c4ccccc4OC)cc3F)c2cc1OC
Endpoint Value: 3.12
//
Smiles Representation: COc1cc2c(Oc3c(F)cc(NC(=O)c4cnccc4OC4CC4)cc3F)ccnc2cc1OCCO
Endpoint Value: 1.26
//
Smiles Representation: COc1cc2c(Oc3c(F)cc(NC(=O)c4cnccc4OC)cc3F)ccnc2cc1OCCO
Endpoint Value: 1.56
//
Smiles Representation: CNCCOc1cc2nccc(Oc3c(F)cc(NC(=O)c4cnccc4OC)cc3F)c2cc1OC
Endpoint Value: 1.77
//
Smiles Representation: COc1cc2nccc(Oc3c(F)cc(NC(=O)c4cnccc4OC)cc3F)c2cc1OC
Endpoint Value: 2.09
//
Smiles Representation: COc1cc2nccc(Oc3c(F)cc(NC(=O)c4cnccc4OC)cc3F)c2cc1OCCO
Endpoint Value: 1.81
//
Smiles Representation: CN1CCC(COc2cnc(-c3cccc(Cn4nc(-c5cccc(C#N)c5)ccc4=O)c3)nc2)CC1
Endpoint Value: 0.81

----------
test: AUClast in male Beagle dog at 10 mg/kg, po; assay type: ADME, organism-based, Canis lupus familiaris; conditions: in vivo
Observation Type: AUC(0-t)

Smiles Representation: COc1cc2nccc(Oc3c(F)cc(NC(=O)c4cnccc4OC)cc3F)c2cc1O[C@@H](C)CO
Endpoint Value: 26.4 µg·h/mL

----------
experiment: Half life in female Balb/c mouse at 5 mg/kg, iv; assay type: ADME, organism-based; conditions: in vivo

Smiles Representation: COc1cc2nccc(Oc3c(F)cc(NC(=O)c4cnccc4OC)cc3F)c2cc1OCCO
half-life: 2.1 h
